- experimental target: Carbonic anhydrase 2 (Homo sapiens, UniProt P00918)
- assay name: DRUGMATRIX: Carbonic Anhydrase II enzyme inhibition (substrate: 4-Nitrophenyl acetate (4-NPA))
- Format: tissue-based, Erythrocyte
- assay context: Not Active = under 50% inhibition at 10 µM; read-out: IC50
Below, each of the compounds is paired with its reported IC50 value.
Give just the number in nM; leave the unit off.

Prompt: Please provide the recorded IC50 for NS(=O)(=O)c1cc(C2(O)NC(=O)c3ccccc32)ccc1Cl (configuration not stated) [CHLORTHALIDONE] , tested on Carbonic anhydrase 2 (Homo sapiens, UniProt P00918).
Completion: 677

Prompt: // lookup IC50 | system=Carbonic anhydrase 2 (Homo sapiens, UniProt P00918) | key= CCc1ccc(CCOc2ccc(CC3SC(=O)NC3=O)cc2)nc1 (configuration not stated) [PIOGLITAZONE]
Completion: 114
